molecular target: UniProtKB P49286
Sequence (P49286 whole entry): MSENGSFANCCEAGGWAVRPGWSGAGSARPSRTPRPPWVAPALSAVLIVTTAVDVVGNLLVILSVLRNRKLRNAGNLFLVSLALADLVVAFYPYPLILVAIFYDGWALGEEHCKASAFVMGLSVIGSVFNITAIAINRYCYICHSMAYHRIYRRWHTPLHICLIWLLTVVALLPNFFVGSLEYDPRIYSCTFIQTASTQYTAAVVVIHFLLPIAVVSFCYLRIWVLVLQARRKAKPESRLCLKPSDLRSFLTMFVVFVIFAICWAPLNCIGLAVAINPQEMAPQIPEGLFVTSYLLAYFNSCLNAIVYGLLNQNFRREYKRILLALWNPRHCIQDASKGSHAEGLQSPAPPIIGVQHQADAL
measuredEndpoint: Ki (nM)
Answers are plain numbers, in nM.

# compoundSmiles, Ki / nM
records = [
    ("O=C(CBr)NCCc1c(Sc2ccc(F)cc2)sc2ccc(F)cc12", 5.21),
]

Next molecule, please.
Look up Ki: C=CCC(=O)NCCc1c(Sc2ccc(F)cc2)sc2ccc(F)cc12
0.24

* * *

target: UniProt:P49286; experiment: Agonist activity at human MT2 receptor expressed in CHO cells by [35S]GTPgamma binding assay
measuredEndpoint: EC50 (nM)
Answers are plain numbers, in nM.

# compoundSmiles, displayUnit, EC50
data = [
    ("O=C(CBr)NCCc1c(Sc2ccc(F)cc2)sc2ccc(F)cc12", "nM", 7.27),
]

Please report EC50 for every entry that follows.
1. CC(=O)NCCc1csc2ccc(F)cc12
2. CC(=O)NCCc1c(Sc2ccc(F)cc2)sc2ccc(F)cc12
3. C=CCC(=O)NCCc1c(Sc2ccc(F)cc2)sc2ccc(F)cc12

[0.68, 0.64, 2.15]
